# experimentalSystem: recombinant human GluN1/GluN2A receptor (Homo sapiens, UniProt Q05586+Q12879)
# Construct: expressed in transfected cells; host or cells: HEK293, tetracycline-inducible expression
# Sequence (Q12879 23-1464, other chains not shown): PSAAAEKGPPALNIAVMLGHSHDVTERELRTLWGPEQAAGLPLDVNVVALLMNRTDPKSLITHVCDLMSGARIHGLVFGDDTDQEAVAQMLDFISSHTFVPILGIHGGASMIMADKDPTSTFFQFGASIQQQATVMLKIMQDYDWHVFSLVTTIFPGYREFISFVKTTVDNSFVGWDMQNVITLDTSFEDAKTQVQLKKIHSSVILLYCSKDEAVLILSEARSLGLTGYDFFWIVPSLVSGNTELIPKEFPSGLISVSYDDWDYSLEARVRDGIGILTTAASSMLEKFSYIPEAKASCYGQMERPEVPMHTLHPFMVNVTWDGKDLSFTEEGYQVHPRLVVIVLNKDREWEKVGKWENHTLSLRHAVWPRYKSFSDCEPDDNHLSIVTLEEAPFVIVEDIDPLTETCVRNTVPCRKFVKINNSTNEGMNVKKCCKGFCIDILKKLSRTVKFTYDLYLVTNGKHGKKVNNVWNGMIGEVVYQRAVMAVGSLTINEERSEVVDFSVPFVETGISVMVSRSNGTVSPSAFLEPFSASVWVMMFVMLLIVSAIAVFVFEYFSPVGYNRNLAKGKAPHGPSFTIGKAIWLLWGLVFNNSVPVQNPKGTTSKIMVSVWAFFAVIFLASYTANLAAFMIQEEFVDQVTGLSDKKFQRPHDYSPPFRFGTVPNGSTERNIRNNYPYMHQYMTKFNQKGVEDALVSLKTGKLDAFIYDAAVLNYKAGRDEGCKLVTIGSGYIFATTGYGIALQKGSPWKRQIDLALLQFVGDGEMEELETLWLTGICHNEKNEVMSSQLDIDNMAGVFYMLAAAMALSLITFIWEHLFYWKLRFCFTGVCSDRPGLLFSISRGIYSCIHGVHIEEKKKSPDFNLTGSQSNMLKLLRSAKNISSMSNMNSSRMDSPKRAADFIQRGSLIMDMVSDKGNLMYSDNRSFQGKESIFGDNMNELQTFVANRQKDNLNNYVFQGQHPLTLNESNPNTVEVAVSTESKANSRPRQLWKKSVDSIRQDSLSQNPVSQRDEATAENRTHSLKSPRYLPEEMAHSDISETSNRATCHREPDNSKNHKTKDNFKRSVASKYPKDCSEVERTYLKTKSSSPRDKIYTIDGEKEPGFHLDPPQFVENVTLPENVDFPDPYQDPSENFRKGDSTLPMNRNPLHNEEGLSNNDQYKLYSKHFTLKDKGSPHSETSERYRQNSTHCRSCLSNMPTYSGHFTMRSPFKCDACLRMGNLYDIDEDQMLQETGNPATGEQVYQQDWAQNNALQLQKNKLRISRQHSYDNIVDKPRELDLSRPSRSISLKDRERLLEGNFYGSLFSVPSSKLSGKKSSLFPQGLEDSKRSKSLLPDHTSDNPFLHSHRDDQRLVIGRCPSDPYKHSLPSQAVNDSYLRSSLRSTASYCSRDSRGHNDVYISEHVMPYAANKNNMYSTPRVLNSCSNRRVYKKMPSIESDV
# experimentalProtocol: Whole-cell patch clamp of mammalian cells (Syncropatch 384i), NMDA modulation
# Format: cell-based
# statedConditions: Table A-2; HEK293 cells, human GluN1/GluN2A; glutamate 1 μM / glycine 100 μM; -80 mV; peak amplitude increase; read-out: EC50
pEC50: −log10 of the molar value.
So I've got a bunch of molecules here, and I need their pEC50 values.

* CC[C@]1(O)CC[C@@]2(C)[C@@H](CC[C@@H]3[C@@H]2CC[C@]2(C)[C@@H]([C@@H](CC[C@@H](O)C(C)C)OC)CC[C@@H]32)C1 | 6.30 to 7.00

# map each molecule to its pEC50
1. CC[C@]1(O)CC[C@@]2(C)[C@@H](CC[C@@H]3[C@@H]2CC[C@]2(C)[C@@H]([C@@H](CC[C@H](O)C(C)C)OC)CC[C@@H]32)C1
2. CC[C@]1(O)CC[C@@]2(C)C(=CC[C@H]3[C@@H]4CC[C@H]([C@@H](CC[C@@](C)(O)C(F)(F)F)OC)[C@@]4(C)CC[C@@H]32)C1
3. CC[C@]1(O)CC[C@@]2(C)[C@@H](CC[C@@H]3[C@@H]2CC[C@]2(C)[C@@H]([C@H](CC[C@H](O)C(C)C)C(F)(F)F)CC[C@@H]32)C1

Result:
1: 6.30 to 7.00; 2: 6.00 to 6.30; 3: < 6.00
